# System: NCI-H460 lung
# procedureText: NCI-60 one-dose screen, 48 h (100 = growth as untreated, 0 = no growth, -100 = all killed)
# experimentalConditions: 10 µM
This is part of a sample that, as a whole, favours compounds with a hit. Of some 83,000 tested, about 20% had one in any assay.
Kindly supply the reported growth values for the records listed here.
Number in %, nothing else.

Sample `O=C(O)c1cc([N+](=O)[O-])ccc1Cl` ; growth observed: 114

Record summary for `C=C1CC/C=C(\C)C(=O)C[C@@H]2[C@@H]1CC2(C)C` : reported growth = 107

Item: `COC(=O)/C=C/C(=O)NC(N)=O` | growth: 105

growth measured on `COc1cc(/C=N\Nc2ccccc2)ccc1OC(=O)c1ccccc1` = 44.2

What the record says about `Cc1cc(C)c(CC(=O)O)c(C)c1` : growth is 105

For record `C#CCSc1nnnn1-c1ccc(Br)c(C)c1` the listed growth is 97

The recorded growth for `O=C(N/N=C/c1ccccc1O)Nc1nn[nH]n1` is 102

Measured growth of `CCCCOC(OCCCC)c1ccccc1` : 109

Lab note: measured growth of `C/C(=N/NC(N)=O)c1ccco1` was 107

Lab note: `COC(=O)c1cc(-c2ccc(Cl)c(Cl)c2)[nH]c(=O)c1C#N` gave growth of 109

According to the records, this compound `Cc1ccc(C)n1-c1ccsc1C(=O)NNC(=O)CCl` displays growth of 101

Source listed as PubChem BioAssay (NCI).
